Molecular target: T1, human CD24 (human, UniProt P25063 27-59, heavily glycosylated, GPI-anchored (as described in the background))
T1 construct: whole, on cells; Target of all cell-based FACS assays; also called hCD24; Cluster of differentiation 24
T1 chain (looked up): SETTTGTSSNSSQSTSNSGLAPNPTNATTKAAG
Assay: FACS, A549 cells

>  <binder>
SN3 (antibody, V domains shown) VH: QVQLKESGPGLVAPSQSLSITCTVSGFSLTSYGVHWVRQPPGKGLEWLGVIWAGGSTNYNSALMSRLSISKDNSKSQVFLKMNSLQTDDTAMYYCAVYYGYLFFAYWGQGTLVTVSA VL: ENVLTQSPAIMSASPGEKVTMTCSASSSVSYMHWYQQKSTTSPKLWIYDTSKLASGVPGRFSGSGSGNSYSLTISSMEAEDVATYYCFQGSGYPLTFGGGTKLEIK

>  <Max MFI>
8820

$$$$
>  <binder>
58F10-1F6 (antibody, V domains shown, mouse monoclonal antibody) VH: EVQLRQSGPELVKPGAAVKISCKASGYSFTGYHMNWVKQSPEKSLEWIGEINPITSGITYNQIFKAKATLTVDKSSSTAYLQLKSLTSEDSAVYYCTRRDYGTSLDYWGQGTTLTVSS VL: DIQMTQITSSLSASLGDRVTITCRASQDISNYLNWYQQKPDGTVKLLIYYTSRLLSGVPSRFSGSGSGTDYSLTISNLEQEDIATYFCQQDHTLPRTFGGGTKLEIR

>  <Max MFI>
12600

$$$$
>  <binder>
100F2E3 (antibody, V domains shown, mouse monoclonal antibody) VH: QVQLQQPGAELVRPGSSVKLSCKTSDYTFTSYWMDWVKQRPGQGLEWIGNIYPSDSKTHSNQKFRDKATLTVDKSSSTAYMQLNSLTSEDSAVYYCARRGGYYGYAMDYWGQGTSVTVSS VL: DIVMTQSPSSLSVSAGEKVTMSCKSSQSLLNSGNQDNYLAWYQQKPGQPPKLLIYGASIRESGVPDRFTGSGSGTDFTLTISSVQAEDLAVYYCQNDHSYPYTFGGGTKLEIK

>  <Max MFI>
8670

$$$$
